experiment_notes: in vitro
assay_setup: human, hela cells, % viability
attribute_measured: viability at 28.5 h, 10 µM (%)
Please respond with the number in % and leave the unit unwritten.

Query block: Return reported viability at 28.5 h, 10 µM; argument: O=C(c1ccc(OC(F)(F)F)cc1)N1CCC2(CCN(Cc3ccccc3)CC2)C1 [CBK136746]
Result block: 101

Query block: Return reported viability at 28.5 h, 10 µM; argument: Nn1cnn2c(SCc3ccccc3)nnc12 [CBK263188]
Result block: 112

====

experiment_notes: in vitro
assay_setup: human, hela cells, % viability
attribute_measured: viability at 28.5 h, 10 µM (%)
Please respond with the number in % and leave the unit unwritten.

>>> df
                                   compound          attribute_measured  reported_result
0     COc1ccccc1CN(Cc1cccnc1)C(=O)CCN1CCCO1  viability at 28.5 h, 10 µM             98.1
1  CC(C)CCCC(C)NC(=O)COc1cc(C(=O)O)cc(C(=O)O)c1 (centres unmarked)  viability at 28.5 h, 10 µM             86.8
2  O=C(COc1ccccc1)Nc1cccc(N2CCNCC2)c1 [CBK028271T]  viability at 28.5 h, 10 µM              100
3    CCOC(=O)C1CCN(Cc2c(O)c3ccccc3oc2=O)CC1  viability at 28.5 h, 10 µM             70.6

In the following, a different compound is considered.
Query block: Return reported viability at 28.5 h, 10 µM; argument: c1csc(CCN2CCC3(CC2)OCCc2c3[nH]c3ccccc23)c1
Result block: 87.1

====

Entries and their viability at 28.5 h, 10 µM values follow.
experiment_notes: in vitro
assay_setup: human, hela cells, % viability
Please respond with the number in % and leave the unit unwritten.

Example results:
>>> print(df.to_string())
                                   molecule  units_text  reported_result
0      Clc1cc(NCCc2c[nH]c3ccccc23)n2nccc2n1           %             40.6
1  COc1ccc2c(c1OC)C(=O)N1C2SC(C)(C)C1C(=O)O (centres unmarked)           %             98.9
2              Cc1cc(C)nc(-n2ncc(C#N)c2N)n1           %               87
3       Cc1cc(Cl)ccc1OCCCC(=O)N1CCc2ccccc21           %             97.8
4    CN(CC(=O)Nc1ccc(N(C)C)cc1)Cc1ccc(F)cc1           %             86.1
5       O=C(CSCc1cccc(Br)c1)Nc1cccc2cccnc12           %              101
6         c1csc(CN2CCC(n3cnc4cccnc43)CC2)c1           %              101
7       COc1cc(NC(=O)CCN2CCN(C)CC2)cc(OC)c1           %             92.5

Query block: Return reported viability at 28.5 h, 10 µM; argument: Cc1cc(C)n(CC(=O)NCCCc2ccc(Cl)cc2)c(=O)n1
Result block: 96.3

Query block: Return reported viability at 28.5 h, 10 µM; argument: Cc1cc(S(=O)(=O)N(C)CCC#N)c(C)cc1Cl
Result block: 111

Query block: Return reported viability at 28.5 h, 10 µM; argument: COc1cc(CN2CCC3(CC2)CN(S(C)(=O)=O)c2ccccc23)cc(OC)c1OC
Result block: 100

Query block: Return reported viability at 28.5 h, 10 µM; argument: Cc1cc(C)n2nc(C(=O)NCCCn3ccnc3C(C)C)nc2n1
Result block: 94

Query block: Return reported viability at 28.5 h, 10 µM; argument: Cc1ccc(S(=O)(=O)NCC(=O)Nc2ccc3cc(Br)cnc3n2)cc1
Result block: 95.6

Query block: Return reported viability at 28.5 h, 10 µM; argument: C[C@@H]1CN2CCCC2CN1CC1=Cc2ccccc2OC1 (some centres unmarked)
Result block: 88.6

Query block: Return reported viability at 28.5 h, 10 µM; argument: O=C(O)c1cc(-c2ccc(-c3ccc(Cl)c(C(F)(F)F)c3)o2)nc2ccc(F)cc12
Result block: 111

Query block: Return reported viability at 28.5 h, 10 µM; argument: O=S(=O)(NCc1cccnc1)c1ccc(Cl)c2ccccc12
Result block: 89.5
